# test.description: Acute toxicity (oral)
# Type: in vivo
# condition.context: rat, in vivo, po, male rats; 95% CL (238-453); read-out: LD50, Male
experimental.endpoint: LD50 at 168 h (mg/kg)
Give a bare numeral; the unit mg/kg is implied.

The compound CC(C(=O)O)c1ccc(N2CC3=C(CC=CC3)C2=O)cc1 (stereo not shown) [Compound 1] showed LD50 at 168 h equal to 328

---

# test.description: Acute toxicity (oral)
# Format: in vivo
# condition.context: rat, in vivo, po, female rats; 95% CL (250-476); read-out: LD50, Female
experimental.endpoint: LD50 at 168 h (mg/kg)
Give a bare numeral; the unit mg/kg is implied.

The molecule CC(C(=O)O)c1ccc(N2CC3=C(CC=CC3)C2=O)cc1 (stereo not shown) showed LD50 at 168 h equal to 345
